Origin of the recorded values: ChEMBL document CHEMBL1159049

test: Apparent permeability from apical to basolateral side of human Caco-2 cell; type: ADME, cell-based
readout label: Papp A→B (×10⁻⁶ cm/s)
Unit ×10⁻⁶ cm/s implied. Number only.

Which Papp A→B is reported for this molecule? `Cn1nnc(-c2c(F)cc(Cl)cc2-c2cnc(CNC(=O)N(O)C3CCC(F)(F)CC3)c(F)c2)n1`
24

---

test: Half life in Wistar rat at 1 mg/kg, iv […]; assay type: ADME, organism-based; settings: in vivo
readout label: half-life (min)
Unit min implied. Number only.

Worked cases, answers included:
INSERT INTO results (structure_notation, unit_descriptor, test_value) VALUES
  ('Cn1nnc(-c2c(F)cc(Cl)cc2-c2cnc(CNC(=O)N(O)C(CF)CF)c(F)c2)n1', 'min', 80),
  ('Cc1nc(-c2c(F)cc(Cl)cc2-c2cnc([C@@H](C)NC(=O)N(C)O)c(F)c2)no1', 'min', 12);

We now examine a further compound.
Which half-life is reported for this compound? `Cn1nnc(-c2c(F)cc(Cl)cc2-c2cnc(CNC(=O)N(O)C3CCC(F)(F)CC3)c(F)c2)n1`
47

---

experiment: Clearance in Wistar rat at 1 mg/kg, iv […]; format: ADME, organism-based; settings: in vivo
readout label: clearance (mL/min/kg)
Unit mL/min/kg implied. Number only.

INSERT INTO measurements (structure_notation, test_value) VALUES
  ('Cc1nc(-c2c(F)cc(Cl)cc2-c2cnc([C@@H](C)NC(=O)N(C)O)c(F)c2)no1', 58),
  ('Cn1nnc(-c2c(F)cc(Cl)cc2-c2cnc(CNC(=O)N(O)C(CF)CF)c(F)c2)n1', 8);

We now examine a further molecule.
Which clearance is reported for this molecule? `Cn1nnc(-c2c(F)cc(Cl)cc2-c2cnc(CNC(=O)N(O)C3CCC(F)(F)CC3)c(F)c2)n1`
13

---

assay: Aqueous Solubility in PBS buffer; assay type: physicochemical
readout label: solubility (µM)
Unit µM implied. Number only.

Which solubility is reported for this compound? `Cn1nnc(-c2c(F)cc(Cl)cc2-c2cnc(CNC(=O)N(O)C3CCC(F)(F)CC3)c(F)c2)n1`
39

---

species: Homo sapiens; assay: Protein binding in human plasma; conditions: read-out: PPB (converted)
readout label: fraction unbound
Simply state the number, no unit and no words.

Which fraction unbound is reported for this compound? `Cn1nnc(-c2c(F)cc(Cl)cc2-c2cnc(CNC(=O)N(O)C3CCC(F)(F)CC3)c(F)c2)n1`
0.013

---

target: B1 bradykinin receptor (Homo sapiens); test: Antagonist activity at bradykinin B1 receptor in human IMR90 cells assessed as inhibition of des-Arg-bradykinin-mediated calcium mobilization; conditions: in the assay text read “des-Arg-kallidin-mediated” for “des-Arg-bradykinin-mediated”
Sequence (P46663 whole entry): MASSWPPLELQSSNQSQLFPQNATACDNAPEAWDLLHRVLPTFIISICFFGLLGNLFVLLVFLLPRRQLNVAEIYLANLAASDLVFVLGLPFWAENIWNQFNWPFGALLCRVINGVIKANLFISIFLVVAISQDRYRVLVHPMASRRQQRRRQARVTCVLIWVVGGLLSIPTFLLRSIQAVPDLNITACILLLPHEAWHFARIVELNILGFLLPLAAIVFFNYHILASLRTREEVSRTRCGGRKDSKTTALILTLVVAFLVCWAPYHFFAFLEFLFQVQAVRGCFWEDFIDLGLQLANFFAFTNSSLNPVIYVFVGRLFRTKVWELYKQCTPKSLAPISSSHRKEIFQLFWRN
pIC50: −log10 of the molar value.
Classification field: enter YES for pIC50 values not below 8, NO for values below it.

INSERT INTO results (structure_notation, label) VALUES
  ('Cn1nnc(-c2c(F)cc(Cl)cc2-c2cnc(CNC(=O)N(O)C3CCC(F)(F)CC3)c(F)c2)n1', 'YES'),
  ('Cc1nc(-c2c(F)cc(Cl)cc2-c2ccc(CNC(=O)N(C)O)cc2)no1', 'NO'),
  ('CC(C)N(O)C(=O)NCc1ncc(-c2cc(Cl)cc(F)c2-c2nnn(C)n2)cc1F', 'YES'),
  ('Cn1nnc(-c2c(F)cc(Cl)cc2-c2cnc(CNC(=O)N(O)C3CCCCC3)c(F)c2)n1', 'YES'),
  ('Cn1nnc(-c2c(F)cc(Cl)cc2-c2cnc(CNC(=O)N(O)C(C)(C)C)c(F)c2)n1', 'YES'),
  ('Cc1nc(-c2c(F)cc(Cl)cc2-c2ccc(CNC(=O)N(C)O)c(F)c2)no1', 'NO'),
  ('CCN(O)C(=O)NCc1ncc(-c2cc(Cl)cc(F)c2-c2nnn(C)n2)cc1F', 'YES'),
  ('Cc1nc(-c2c(F)cc(Cl)cc2-c2cnc([C@@H](C)NC(=O)N(C)O)c(F)c2)no1', 'YES');

Answer whether pIC50 of `Cn1nnc(-c2c(F)cc(Cl)cc2-c2cnc(CNC(=O)N(O)C3CCCC3)c(F)c2)n1` is greater than or equal to 8.
YES

Answer whether pIC50 of `Cn1nnc(-c2c(F)cc(Cl)cc2-c2cnc(CNC(=O)NO)c(F)c2)n1` is greater than or equal to 8.
NO

Answer whether pIC50 of `Cc1nc(-c2c(F)cc(Cl)cc2-c2cnc([C@@H](C)NC(=O)N(C)O)c(C)c2)no1` is greater than or equal to 8.
YES

Answer whether pIC50 of `Cc1nc(-c2c(F)cccc2-c2cnc([C@@H](C)NC(=O)N(C)O)c(F)c2)no1` is greater than or equal to 8.
NO

Answer whether pIC50 of `Cn1nnc(-c2c(F)cc(Cl)cc2-c2cnc(CNC(=O)N(O)C(CF)CF)c(F)c2)n1` is greater than or equal to 8.
YES

Answer whether pIC50 of `Cc1nc(-c2c(Cl)cc(Cl)cc2-c2cnc([C@@H](C)NC(=O)N(C)O)c(F)c2)no1` is greater than or equal to 8.
YES
